test: Mouse oral PK study; type: in vivo, male C57BI/6 mice; settings: male, C57BI/6, 10 mg/kg, PO, single dose, plasma
Observable: Tmax (h)
Numbers only, in h.

Lookup: Respond only with Tmax recorded for COc1cc(C2CCN(CC3CN(c4ccc5c(c4)C(=O)N(C4CCC(=O)NC4=O)C5=O)C3)CC2)c(C)cc1Nc1ncc(Cl)c(Nc2ccccc2S(=O)(=O)C(C)C)n1 (stereo not shown)
Found: 1.67

###

assay: Mouse oral PK study; type: in vivo, male C57BI/6 mice; details: male, C57BI/6, mouse, plasma, iv, 2 mg/kg, IV, single 2 mg/kg, plasma, read-out: Vss
Observable: Vd (L/kg)
One number for each entry, in L/kg.

Lookup: Please give measured Vd of the following entry: COc1cc(C2CCN(CC3CN(c4ccc5c(c4)C(=O)N(C4CCC(=O)NC4=O)C5=O)C3)CC2)c(C)cc1Nc1ncc(Cl)c(Nc2ccccc2S(=O)(=O)C(C)C)n1 (stereo not shown)
Found: 2.29

###

assay: Mouse oral PK study; assay type: in vivo, male C57BI/6 mice; settings: male, C57BI/6, IV, single 2 mg/kg, plasma
Observable: AUC(0-t) (µM·h)
Numbers only, in µM·h.

Lookup: // fetch AUC(0-t) given entry COc1cc(C2CCN(CC3CN(c4ccc5c(c4)C(=O)N(C4CCC(=O)NC4=O)C5=O)C3)CC2)c(C)cc1Nc1ncc(Cl)c(Nc2ccccc2S(=O)(=O)C(C)C)n1 (stereo not shown)
Found: 4.97

###

What Dmax was measured for each of the following?
molecular target: HiBiT G1202R Variant 1 EML4-ALK (Homo sapiens, UniProt Q9UM73, G1202R); format: cell-based; conditions: BaF3; Ba/F3 cells, 0.0003-2 μM, 4 hours; maximal level of degradation; read-out: BAF3 Cellular Degradation - HiBiT G1202R Variant 1 EML4-ALK: Dmax
Sequence (Q9UM73 with tags, fused parts or gaps G1202R): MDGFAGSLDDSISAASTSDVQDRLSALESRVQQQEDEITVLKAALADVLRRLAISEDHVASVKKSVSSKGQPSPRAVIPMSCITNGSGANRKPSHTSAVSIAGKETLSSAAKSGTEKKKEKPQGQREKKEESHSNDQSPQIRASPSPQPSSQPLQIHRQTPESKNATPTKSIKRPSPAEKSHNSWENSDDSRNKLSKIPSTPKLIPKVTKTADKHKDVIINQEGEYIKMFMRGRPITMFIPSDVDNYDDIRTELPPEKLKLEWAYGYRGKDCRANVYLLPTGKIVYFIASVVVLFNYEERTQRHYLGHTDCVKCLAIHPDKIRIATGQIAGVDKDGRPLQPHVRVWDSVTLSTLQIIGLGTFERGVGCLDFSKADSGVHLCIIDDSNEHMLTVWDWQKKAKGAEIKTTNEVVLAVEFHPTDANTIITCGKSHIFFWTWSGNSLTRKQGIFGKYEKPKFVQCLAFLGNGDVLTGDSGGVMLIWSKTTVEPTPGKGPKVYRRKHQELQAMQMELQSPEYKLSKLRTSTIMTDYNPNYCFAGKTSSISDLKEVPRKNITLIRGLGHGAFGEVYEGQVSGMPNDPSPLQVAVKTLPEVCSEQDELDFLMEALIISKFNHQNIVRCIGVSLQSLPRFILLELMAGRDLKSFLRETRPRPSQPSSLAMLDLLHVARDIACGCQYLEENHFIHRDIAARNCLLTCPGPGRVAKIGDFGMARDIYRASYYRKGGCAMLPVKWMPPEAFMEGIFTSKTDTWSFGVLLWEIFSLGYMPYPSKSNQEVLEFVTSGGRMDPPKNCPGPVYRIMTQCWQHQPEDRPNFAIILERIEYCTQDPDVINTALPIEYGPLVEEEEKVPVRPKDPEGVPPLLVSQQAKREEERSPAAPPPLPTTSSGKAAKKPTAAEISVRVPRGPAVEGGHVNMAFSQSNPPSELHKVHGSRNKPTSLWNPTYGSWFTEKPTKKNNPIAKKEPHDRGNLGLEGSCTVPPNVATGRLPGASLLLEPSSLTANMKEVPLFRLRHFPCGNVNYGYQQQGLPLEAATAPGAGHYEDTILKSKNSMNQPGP
Sequence (Q96SW2 whole entry partner): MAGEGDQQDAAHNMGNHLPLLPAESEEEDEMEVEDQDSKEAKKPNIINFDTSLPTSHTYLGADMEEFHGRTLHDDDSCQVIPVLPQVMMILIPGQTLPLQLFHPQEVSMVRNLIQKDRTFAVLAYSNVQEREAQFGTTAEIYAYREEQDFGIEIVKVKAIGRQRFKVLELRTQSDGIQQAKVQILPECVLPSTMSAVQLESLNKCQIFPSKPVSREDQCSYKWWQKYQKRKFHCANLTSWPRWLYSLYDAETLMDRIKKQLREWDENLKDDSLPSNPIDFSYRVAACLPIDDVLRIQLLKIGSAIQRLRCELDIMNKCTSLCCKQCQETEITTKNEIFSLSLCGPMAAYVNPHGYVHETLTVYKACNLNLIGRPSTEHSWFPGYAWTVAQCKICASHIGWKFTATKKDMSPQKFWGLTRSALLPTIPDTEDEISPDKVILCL
Sequence (Q3U1J4 whole entry partner): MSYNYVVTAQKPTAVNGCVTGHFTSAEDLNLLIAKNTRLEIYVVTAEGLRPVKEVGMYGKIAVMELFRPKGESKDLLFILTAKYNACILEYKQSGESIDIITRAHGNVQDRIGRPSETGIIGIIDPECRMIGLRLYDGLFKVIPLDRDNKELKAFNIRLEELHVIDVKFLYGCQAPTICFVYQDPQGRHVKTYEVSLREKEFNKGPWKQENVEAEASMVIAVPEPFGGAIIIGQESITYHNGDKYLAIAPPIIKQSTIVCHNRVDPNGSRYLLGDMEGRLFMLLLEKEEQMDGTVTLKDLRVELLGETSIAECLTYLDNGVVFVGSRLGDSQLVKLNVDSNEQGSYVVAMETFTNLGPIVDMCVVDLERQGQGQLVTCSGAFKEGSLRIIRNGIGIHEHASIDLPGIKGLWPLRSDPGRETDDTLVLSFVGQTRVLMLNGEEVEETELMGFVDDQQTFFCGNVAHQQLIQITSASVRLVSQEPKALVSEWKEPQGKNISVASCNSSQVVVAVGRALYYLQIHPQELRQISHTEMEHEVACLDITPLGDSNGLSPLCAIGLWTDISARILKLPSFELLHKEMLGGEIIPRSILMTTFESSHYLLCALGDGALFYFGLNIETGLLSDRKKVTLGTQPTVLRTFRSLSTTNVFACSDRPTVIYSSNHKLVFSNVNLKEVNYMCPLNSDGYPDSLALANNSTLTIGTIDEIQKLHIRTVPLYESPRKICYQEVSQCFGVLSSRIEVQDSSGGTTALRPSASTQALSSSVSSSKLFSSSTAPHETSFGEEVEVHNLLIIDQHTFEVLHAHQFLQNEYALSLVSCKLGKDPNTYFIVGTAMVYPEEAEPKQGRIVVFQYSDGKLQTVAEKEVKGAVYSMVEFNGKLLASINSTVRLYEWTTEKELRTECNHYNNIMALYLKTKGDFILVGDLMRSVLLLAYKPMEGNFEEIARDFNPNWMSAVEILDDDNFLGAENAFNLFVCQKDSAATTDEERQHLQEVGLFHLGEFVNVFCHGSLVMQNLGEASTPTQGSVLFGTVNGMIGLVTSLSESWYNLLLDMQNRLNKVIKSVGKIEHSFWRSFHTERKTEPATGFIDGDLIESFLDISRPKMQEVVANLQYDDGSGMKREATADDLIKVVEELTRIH
One number for each entry, in %.

Example compounds with recorded Dmax:
Compound	Dmax, %
CCc1cc2c(cc1C#CCCCN1CCC(c3ccc4c(c3)CN(C3CCC(=O)NC3=O)C4=O)CC1)C(C)(C)c1[nH]c3cc(C#N)ccc3c1C2=O (centres unmarked) [Compound 22]	82
CCc1cc2c(cc1N1CC(CN3CCC(c4ccc5c(c4)CN(C4CCC(=O)NC4=O)C5=O)CC3)C1)C(C)(C)c1[nH]c3cc(C#N)ccc3c1C2=O (centres unmarked) [Compound 23]	63
CNC(=O)c1ccccc1Nc1nc(Nc2cc(C)c(C3CCN(CC4CN(c5ccc6c(c5)C(=O)N(C5CCC(=O)NC5=O)C6=O)C4)CC3)cc2OC(C)C)ncc1C(F)(F)F (centres unmarked) [Compound 18]	68
CNC(=O)c1ccccc1Nc1nc(Nc2cc(C)c(C3CCN(CC4CCN(c5ccc6c(c5)C(=O)N(C5CCC(=O)NC5=O)C6=O)CC4)CC3)cc2OC)ncc1C(F)(F)F (centres unmarked) [Compound 17]	77

Lookup: Enter Dmax (test system HiBiT G1202R Variant 1 EML4-ALK (Homo sapiens, UniProt Q9UM73, G1202R)) for CNC(=O)c1ccccc1Nc1nc(Nc2cc(C)c(C3CCN(CC4CCN(c5ccc6c(c5)C(=O)N(C5CCC(=O)NC5=O)C6=O)CC4)CC3)cc2OC(C)C)ncc1C(F)(F)F (centres unmarked) [Compound 19]
Found: 55

###

experiment: Mouse oral PK study; assay type: in vivo, male C57BI/6 mice; details: male, C57BI/6, IV, single 2 mg/kg, plasma
Observable: C0 (nM)
Answers are plain numbers, in nM.

Lookup: Return C0 for the following compound: COc1cc(C2CCN(CC3CN(c4ccc5c(c4)C(=O)N(C4CCC(=O)NC4=O)C5=O)C3)CC2)c(C)cc1Nc1ncc(Cl)c(Nc2ccccc2S(=O)(=O)C(C)C)n1 (stereo not shown)
Found: 2340
